# tgt: Glycylpeptide N-tetradecanoyltransferase (Plasmodium falciparum (isolate 3D7), UniProt Q8ILW6)
# Sequence (Q8ILW6 whole entry): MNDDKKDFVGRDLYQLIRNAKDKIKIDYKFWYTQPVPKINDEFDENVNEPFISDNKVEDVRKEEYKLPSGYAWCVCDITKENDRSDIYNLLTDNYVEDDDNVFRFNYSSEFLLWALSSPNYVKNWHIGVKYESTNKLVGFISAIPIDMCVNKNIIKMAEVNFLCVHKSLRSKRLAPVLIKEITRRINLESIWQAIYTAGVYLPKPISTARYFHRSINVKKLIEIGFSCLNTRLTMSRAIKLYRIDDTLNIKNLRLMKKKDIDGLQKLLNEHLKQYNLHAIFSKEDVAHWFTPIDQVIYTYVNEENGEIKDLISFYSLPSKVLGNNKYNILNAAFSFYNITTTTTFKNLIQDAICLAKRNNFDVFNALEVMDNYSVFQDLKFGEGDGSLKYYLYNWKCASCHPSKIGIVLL
# assay context: read-out: Ki(app)
observable: pKi
// pKi: -log10(molar conc.)

Exercise: Indicate its recorded pKi; the compound in question is Fc1cccc(OC2CCNCC2)c1-c1nc(Cc2ccccc2)no1
Solution: 5.32

Exercise: Indicate its recorded pKi; the compound in question is Cc1cccc(-c2nc(Cc3ccccc3)no2)c1OC1CCNCC1
Solution: 4.41

Exercise: Indicate its recorded pKi; the compound in question is c1cnc(OC2CCNCC2)c(-c2nc(Cc3cccc4ncccc34)no2)c1
Solution: 8.77

Exercise: Indicate its recorded pKi; the compound in question is COc1ccc(OC2CCNCC2)c(-c2nc(Cc3ccccc3)no2)c1
Solution: 5.34

Exercise: Indicate its recorded pKi; the compound in question is COc1cccc(Cc2noc(-c3ccc(Cl)cc3OC3CCNCC3)n2)c1
Solution: 7.52

Exercise: Indicate its recorded pKi; the compound in question is Fc1ccc(OC2CCNCC2)c(-c2nc(Cc3ccccc3)no2)c1
Solution: 6.62

Exercise: Indicate its recorded pKi; the compound in question is Cc1nn(C)c(C)c1Cc1noc(-c2cccnc2OC2CCN(C(C)C)CC2)n1
Solution: 7.05

Exercise: Indicate its recorded pKi; the compound in question is c1ccc(Cc2noc(-c3cccnc3OC3CCNCC3)n2)cc1
Solution: 6.85

Exercise: Indicate its recorded pKi; the compound in question is Cc1ccc(-c2nc(Cc3ccccc3)no2)c(OC2CCNCC2)c1
Solution: 6.21

Exercise: Indicate its recorded pKi; the compound in question is COc1cccc(Cc2noc(-c3ccc(OC)cc3OC3CCNCC3)n2)c1
Solution: 7.15

Exercise: Indicate its recorded pKi; the compound in question is Cc1ccc(OC2CCNCC2)c(-c2nc(Cc3ccccc3)no2)c1
Solution: 4.54

----------
# tgt: Glycylpeptide N-tetradecanoyltransferase 1 (Homo sapiens, UniProt P30419)
# Sequence (P30419 whole entry): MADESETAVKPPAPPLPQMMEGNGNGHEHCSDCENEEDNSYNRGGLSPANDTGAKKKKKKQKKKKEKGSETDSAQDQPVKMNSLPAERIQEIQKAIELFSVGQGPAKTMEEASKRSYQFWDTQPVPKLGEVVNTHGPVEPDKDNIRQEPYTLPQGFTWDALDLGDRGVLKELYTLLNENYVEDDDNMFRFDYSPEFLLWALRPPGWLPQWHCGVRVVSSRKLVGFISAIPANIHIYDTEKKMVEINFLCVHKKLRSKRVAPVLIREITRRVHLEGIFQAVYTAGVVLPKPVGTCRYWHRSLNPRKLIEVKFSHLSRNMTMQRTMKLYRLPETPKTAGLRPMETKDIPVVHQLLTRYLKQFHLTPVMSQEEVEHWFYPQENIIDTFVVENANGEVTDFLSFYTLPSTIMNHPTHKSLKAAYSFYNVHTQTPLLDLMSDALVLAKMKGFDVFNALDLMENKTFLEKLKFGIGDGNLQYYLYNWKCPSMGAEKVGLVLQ
observable: log10 of Ki (log10 of the value in nM)
Record value = log10 of Ki given in nM.

Exercise: Indicate its recorded log10 of Ki; the compound in question is COc1cccc(Cc2noc(-c3ccccc3OC3CCNCC3)n2)c1
Solution: 3.15

Exercise: Indicate its recorded log10 of Ki; the compound in question is Fc1ccc(-c2nc(Cc3ccccc3)no2)c(OC2CCNCC2)c1
Solution: 3.69

Exercise: Indicate its recorded log10 of Ki; the compound in question is c1ccc(Cc2noc(-c3cccnc3OC3CCNCC3)n2)cc1
Solution: 3.23

Exercise: Indicate its recorded log10 of Ki; the compound in question is COc1ccc(-c2nc(Cc3ccccc3)no2)c(OC2CCNCC2)c1
Solution: 3.08

Exercise: Indicate its recorded log10 of Ki; the compound in question is Fc1ccc(OC2CCNCC2)c(-c2nc(Cc3ccccc3)no2)c1
Solution: 3.00

Exercise: Indicate its recorded log10 of Ki; the compound in question is c1cnc(OC2CCNCC2)c(-c2nc(Cc3cccc4ncccc34)no2)c1
Solution: 1.38

Exercise: Indicate its recorded log10 of Ki; the compound in question is COc1ccc(OC2CCNCC2)c(-c2nc(Cc3ccccc3)no2)c1
Solution: 3.36

----------
# tgt: Glycylpeptide N-tetradecanoyltransferase (Plasmodium falciparum (isolate 3D7), UniProt Q8ILW6)
# Sequence (Q8ILW6 whole entry): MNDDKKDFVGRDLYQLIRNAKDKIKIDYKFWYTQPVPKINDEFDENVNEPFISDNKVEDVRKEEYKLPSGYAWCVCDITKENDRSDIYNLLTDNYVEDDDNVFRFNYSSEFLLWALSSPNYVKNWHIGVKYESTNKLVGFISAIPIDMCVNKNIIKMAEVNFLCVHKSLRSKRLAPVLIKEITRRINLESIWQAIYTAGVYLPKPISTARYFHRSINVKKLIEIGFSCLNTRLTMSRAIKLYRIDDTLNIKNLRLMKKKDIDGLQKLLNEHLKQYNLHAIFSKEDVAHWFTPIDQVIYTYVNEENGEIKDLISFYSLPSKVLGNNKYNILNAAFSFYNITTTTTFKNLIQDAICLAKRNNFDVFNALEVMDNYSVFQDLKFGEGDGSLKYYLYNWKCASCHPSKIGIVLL
# assay context: read-out: Ki(app)
Would you mind telling me the reported Ki of each entry?
Please respond with the number in µM and leave the unit unwritten.

Exercise: Indicate its recorded Ki; the compound in question is COc1cccc(Cc2noc(-c3cccnc3OC3CCNCC3)n2)c1
Solution: 0.027

Exercise: Indicate its recorded Ki; the compound in question is COc1cccc(Cc2noc(-c3ccc(F)cc3OC3CCNCC3)n2)c1
Solution: 0.071

Exercise: Indicate its recorded Ki; the compound in question is Cc1nn(C)c(C)c1Cc1noc(-c2cccnc2OC2CCN(C)CC2)n1
Solution: 0.57

Exercise: Indicate its recorded Ki; the compound in question is Cc1nn(C)c(C)c1Cc1noc(-c2cccnc2OC2CCNCC2)n1
Solution: 0.028

Exercise: Indicate its recorded Ki; the compound in question is COc1cccc(-c2nc(Cc3ccccc3)no2)c1OC1CCNCC1
Solution: 17

Exercise: Indicate its recorded Ki; the compound in question is COc1ccc(-c2nc(Cc3ccccc3)no2)c(OC2CCNCC2)c1
Solution: 0.18

Exercise: Indicate its recorded Ki; the compound in question is Clc1ccc(-c2nc(Cc3ccccc3)no2)c(OC2CCNCC2)c1
Solution: 0.29

Exercise: Indicate its recorded Ki; the compound in question is c1ccc(Cc2noc(-c3ccccc3OC3CCNCC3)n2)cc1
Solution: 1.4

Exercise: Indicate its recorded Ki; the compound in question is Clc1ccc(OC2CCNCC2)c(-c2nc(Cc3ccccc3)no2)c1
Solution: 0.52

Exercise: Indicate its recorded Ki; the compound in question is Fc1cccc(-c2nc(Cc3ccccc3)no2)c1OC1CCNCC1
Solution: 1.5

Exercise: Indicate its recorded Ki; the compound in question is CCN1CCC(Oc2ncccc2-c2nc(Cc3c(C)nn(C)c3C)no2)CC1
Solution: 0.34

Exercise: Indicate its recorded Ki; the compound in question is Fc1ccc(-c2nc(Cc3ccccc3)no2)c(OC2CCNCC2)c1
Solution: 0.22

Exercise: Indicate its recorded Ki; the compound in question is COc1cccc(Cc2noc(-c3ccccc3OC3CCNCC3)n2)c1
Solution: 0.19

Exercise: Indicate its recorded Ki; the compound in question is c1ccc(Cc2noc(-c3ncccc3OC3CCNCC3)n2)cc1
Solution: 29
